Please go through the items and note down their Ratio CC50/IC50.
- experimentNotes: Selectivity index, ratio of CC50 for human HepG2 cells to IC50 for Leishmania donovani MHOM/IN/00/DEVI
- Format: functional
Give only the figure.

Query :: Fill in: Ratio CC50/IC50 of `Cc1ccc(S(=O)(=O)Cc2nc3ccc(Br)cn3c2[N+](=O)[O-])cc1` is ___
Result :: 0.13

Query :: // returns reported Ratio CC50/IC50 for input `N=C(N)c1ccc(OCCCCCOc2ccc(C(=N)N)cc2)cc1`
Result :: 0.4

###

- experimentNotes: Cytotoxicity against mouse J774.1 cells after 72 hrs by MTT assay
- Format: cell-based
- particulars: J774.1 cells
Give CC50 at 72 h for every item shown.
# number only, unit µM dropped from output

Query :: Fill blank: measured CC50 at 72 h of the molecule `Cc1ccc(S(=O)(=O)Cc2cn3cc(Br)ccc3n2)cc1` is ____.
Result :: 20.9

Query :: Look up CC50 at 72 h: `O=S(=O)(Cc1cn2cc(Br)ccc2n1)c1ccc(Cl)cc1`
Result :: 43.9

Query :: Find the recorded CC50 at 72 h belonging to `O=[N+]([O-])c1c(CS(=O)(=O)c2ccc(Cl)cc2)nc2ccc(Cl)cn12` and report it.
Result :: 42.4

Query :: What does the record list as CC50 at 72 h for `COc1cc(-c2ccc3nc(CS(=O)(=O)c4ccccc4)c([N+](=O)[O-])n3c2)cc(OC)c1OC` ?
Result :: 5

Query :: Can you look up the measured CC50 at 72 h of `O=[N+]([O-])c1c(CCl)nc2ccccn12` for me?
Result :: 4.8

Query :: GET /values?readout=CC50 at 72 h&item= `Cc1ccc(S(=O)(=O)Cc2nc3ccc(Br)cn3c2[N+](=O)[O-])cc1`
Result :: 44.3

Query :: # CC50 at 72 h lookup, item `O=[N+]([O-])c1c(CS(=O)(=O)c2ccccc2)nc2ccc(I)cn12`
Result :: 27

Query :: Quick check: CC50 at 72 h of `CCCCCCCCCCCCCCCCOP(=O)([O-])OCC[N+](C)(C)C` ?
Result :: 94.6

Query :: // lookup CC50 at 72 h for `C[C@@H]1[C@H](O)[C@@H](C)/C=C/C=C/C=C/C=C/C=C/C=C/C=C/[C@H](O[C@@H]2O[C@H](C)[C@@H](O)[C@H](N)[C@@H]2O)C[C@@H]2O[C@](O)(C[C@@H](O)C[C@@H](O)[C@H](O)CC[C@@H](O)C[C@@H](O)CC(=O)O[C@H]1C)C[C@H](O)[C@H]2C(=O)O`
Result :: 3.1
